The measurements presented in this section are drawn from patent US20190359693A1.

target: hemagglutinin (HA) of influenza A/Brisbane/10/07 (H3N2) (influenza A virus A/Brisbane/10/07 (H3N2)); assay: cell-based or functional assay
outcome-measure: VNA IC50
Note to self: number, then unit, no commentary.

{"columns": ["binder", "VNA IC50"],
 "data": [
  ["SD3026 (VHH) VHH: EVQLLESGGGLVQPGGSLRLSCAASGRTYAMSWFRQAPGKEREFVSAINALGTRTYYADSVKGRFTISRDNSKNTLYLQMNSLRAEDTAVYYCTAQGQWRAAPVAVAAEYEFWGQGTQVTVSS", "16 nM"],
  ["SD3094 (VHH) VHH: EVQLLESGGGLVQPGGSLRLSCAASGRTYAMGWFRQAPGKEREFVAHINALGTRTYYADSVKGRFTISRDNSKNTLYLQMNSLRAEDTAVYYCTAQGQWRAAPVAVAAEYEFWGQGTLVTVSS", "8 nM"]
]}

Req: Reported VNA IC50 for SD3028 (VHH) VHH: EVQLLESGGGLVQAGGSLRLSCAASGRTYAMSWFRQAPGKEREFVAHINALGTRTYYADSVKGRFTISRDNSKNTLYLQMNSLRPEDTAVYYCTAQGQWRAAPVAVAAEYEFWGQGTQVTVSS : what is it?
Resp: 101 nM
